Source listed as PubChem BioAssay (NCI).

system: HCT-15 colon; experiment: NCI tumour cell line growth inhibition, 48 h
Reported Endpoint: TGI

Molecule	Value
C/C(=N\NC(=O)c1ccncc1)c1ccccc1F	> 10 µM
C=C1C(=O)O[C@H]2[C@H](OC(C)=O)[C@@H](C)CCC/C(C)=C/CC[C@@]3(C)O[C@@H]3C[C@@H]12	10.1 µM
CC(C)=c1sc(=C(C)C)c2c1=NC(C)(C)N=2	> 100 µM
COc1cc(/C=C/C(=O)c2c(C)nc3ccccc3c2/C=C/c2ccc(C)cc2)cc(OC)c1OC	3.62 µM
COc1cccc(-c2nc3ccccc3c(=O)[nH]2)c1OC	> 100 µM
COc1ccc(S(=O)(=O)Nc2cc(/C=C\c3cc(OC)c(OC)c(OC)c3)ccc2OC)cc1	> 100 µM
Cn1ccc2c(C(=O)c3ccccc3)cccc2c1=O	> 100 µM
O=C(O)NCC1CCCCC1 (tested in a mixture with another compound)	63.6 µM
COc1cc(NC(=O)CSc2nc3ccc(C)cc3c(=O)n2Cc2ccccc2)cc(OC)c1OC	> 100 µM
Nc1ccc(S(=O)(=O)Nc2ccc(Nc3c4ccccc4nc4ccccc34)cc2)cc1	17.7 µM
COC(=O)C(Cc1ccc(Oc2cc(CC(NC(=O)c3ccccc3)C(=O)OC)ccc2OC)cc1)NC(=O)c1ccccc1 (centres undefined)	> 100 µM
CC1OC(OC2C(OC(=O)[C@@H]3CC(C)(C)C[C@@H]4C5=CC[C@@H]6[C@@]7(C)C[C@H](O)[C@H](OC8OC(CO)C(O)C(O)C8O)[C@@](C)(CO)C7[C@H](O)C[C@@]6(C)[C@]5(C)C[C@@H](O)[C@H]43)OCC(O)C2O)C(O)C(O)C1O (some centres undefined)	> 15 µM
Cc1c(Cl)c(S(N)(=O)=O)cc2c1NC=NS2(=O)=O	> 100 µM
C=C1C(=O)O[C@H]2[C@H]1CCC(/C=N/c1ncc(Br)cc1N)=C\CC[C@@]1(C)O[C@@H]21	4.01 µM
O=S(=O)(c1cccc2c(Cl)cccc12)N1CCCNCC1	27.5 µM
O=C1C2C(c3ccccc3)NC(c3ccccc3)C1C(c1ccccc1)NC2c1ccccc1 (centres undefined)	> 100 µM
Nc1c(C(=O)Nc2ccc(C3=NCCN3)cc2)cccc1C(=O)Nc1ccc(C2=NCCN2)cc1	> 100 µM
CCOC(=O)/C(=C\c1ccc(C#N)cc1)C(C)=O	40 µM
COC(=O)CCC1CCC(c2cc(F)ccc2F)(S(=O)(=O)c2ccc(Cl)cc2)CC1 (centres undefined)	> 100 µM
C=CC[C@@]1([C@H](C=C)COCc2ccc(OC)cc2)CC[C@]2(C)OC(C)(C)[C@@H](c3ccccc3)N2C1=S	> 100 µM
CCOC(=O)/C(=C\c1cccs1)P(=O)(OCC)OCC	32.4 µM
CN1CC[C@]2(C)c3cc(O)ccc3CC3CCCC1C32C (some centres undefined)	> 100 µM
O=C(O)C1C(C(=O)O)C23CC2(C(=O)O)C2(C(=O)O)CCC3=C3CCCC312 (centres undefined)	> 100 µM
COc1ccc(C(=O)/C=C/c2ccc3c(c2)OCO3)c(OCc2ccccc2)c1	> 100 µM
O=C(Cc1ccc(Cl)cc1)Nc1ccc2oc(-c3ccccc3)nc2c1	> 100 µM
CN(Cc1cccc2ccccc12)Cc1cccc2ccccc12	> 100 µM
CC(C)C(Sc1nc(-c2ccccc2)c(-c2ccccc2)[nH]1)C(=O)NN (centres undefined)	> 100 µM
CCN(CC)CCn1c2ccccc2c(=O)c2c(O)ccc(O)c21	> 58.5 µM
Cc1ccc([N+](=O)[O-])cc1NC(=O)c1cccc([N+](=O)[O-])c1O	> 100 µM
